assay: Quantitative High-Throughput drug screen in 47 multiple myeloma cell lines against the NCATS MIPE library collection: RPMI8226_ATCC cell viability assay (AID 1919871); conditions: RPMI8226 myeloma viability, CellTiter-Glo ATP luminescence, 48 h; series mostly up to 45.8 µM; also: nearly all actives have a fitted effect of over 30% in size
Results filed as inconclusive are left out. Active and inactive are the calls of the source. Calls follow the shape of the dose curve; as a rule, active = well fitted cell-killing curve with a large enough effect; inconclusive = small, poorly fitted or top-dose-only effect, or effect the other way; inactive = no such curve, though single readings can be large or run the other way.
Allowed answers: true for active, false for inactive

Exam item: Entry CCCCCCCCCC(=O)N[C@@H](Cc1c[nH]c2ccccc12)C(=O)N[C@H](CC(N)=O)C(=O)N[C@@H](CC(=O)O)C(=O)N[C@@H]1C(=O)NCC(=O)N[C@@H](CCCN)C(=O)N[C@@H](CC(=O)O)C(=O)N[C@H](C)C(=O)N[C@@H](CC(=O)O)C(=O)NCC(=O)N[C@H](CO)C(=O)N[C@@H]([C@@H](C)CC(=O)O)C(=O)N[C@@H](CC(=O)c2ccccc2N)C(=O)O[C@@H]1C : call = ?
Marked response: false

Exam item: Identify the outcome logged in this assay for the molecule shown: CC(C)c1ccc(Cn2ccc3c4c(N)nc(NC5CC5)nc4ccc32)cc1
Marked response: true

Exam item: What classification did Cc1nc(N)ncc1-c1nc(N2CCOCC2)c2sc(C(C)(C)O)cc2n1 end up with in this test?
Marked response: true

Exam item: Field: outcome | Entry: CN(C1CCc2c(c3ccccc3n2CC(=O)O)C1)S(=O)(=O)c1ccc(F)cc1 (configuration not stated)
Marked response: false

Exam item: Look up the recorded call for CC(C)c1cc(C(=O)N2Cc3ccc(CN4CCN(C)CC4)cc3C2)c(O)cc1O in this test.
Marked response: true

Exam item: How did this test come out for CN1CCC(CNc2ccc3ncc(-c4cccc(OC(F)(F)F)c4)n3n2)CC1 ?
Marked response: true

Exam item: How was CCOC(=O)C1=C(C)NC2=C(C(=O)CC(C)(C)C2)C1c1ccc(-c2ccccc2)cc1 (configuration not stated) classified in this test?
Marked response: true

---

system: CP325; test: qHTS profiling for inhibitors of Plasmodium falciparum proliferation (AID 504749); also: nearly all actives have a fitted effect of over 60% in size; conditions: P. falciparum in erythrocytes, SYBR Green DNA, 72 h; series mostly up to 28.7 µM
Results filed as inconclusive are left out. Active and inactive are the calls of the source. Calls come from the whole dose curve; as a rule, active = well fitted inhibition curve with a large enough effect; inconclusive = small, poorly fitted or top-dose-only effect; inactive = flat fitted curve, though single readings scatter.
Hi there, use one of these labels in your reply, thanks! YES (active), NO (inactive)

Exam item: Record request — test call for COC(=O)C1=C(C)NC(C)=C(C(=O)OCCN2CCN(C(c3ccccc3)c3ccccc3)CC2)C1c1cccc([N+](=O)[O-])c1 (stereo not given)
Marked response: YES

Exam item: Called result for CN1c2cc(O)c(N=NC(N)=O)cc2CC1S(=O)(=O)O (stereo not given)
Marked response: NO

Exam item: Write down the call the test reported for this compound. Item: O=C(O)CO.[NH2-].[NH2-].[Pt+2]
Marked response: NO

Exam item: What call does the record list for CC[C@H]1CN2CCc3cc(OC)c(OC)cc3[C@H]2C[C@@H]1C[C@@H]1NCCc2cc(OC)c(OC)cc21 ?
Marked response: YES

Exam item: For Nc1ccn([C@@H]2O[C@H](CO)[C@H](O)C2(F)F)c(=O)n1 , what call appears in the results of this test?
Marked response: YES

---

test system: CP192; experiment: qHTS profiling for inhibitors of Plasmodium falciparum proliferation (AID 504749); also: nearly all actives have a fitted effect of over 60% in size; settings: P. falciparum in erythrocytes, SYBR Green DNA, 72 h; series mostly up to 28.7 µM
Records with an inconclusive call do not appear. Active and inactive are the calls of the source. Calls follow the shape of the dose curve; as a rule, active = well fitted inhibition curve with a large enough effect; inconclusive = small, poorly fitted or top-dose-only effect; inactive = flat fitted curve, though single readings scatter.
In this exercise, the only acceptable responses are TRUE = active, FALSE = inactive

Exam item: Fill in: this test's call for CC(C)(C)NC(=O)[C@H]1CN(Cc2cccnc2)CCN1C[C@@H](O)C[C@@H](Cc1ccccc1)C(=O)N[C@H]1c2ccccc2C[C@H]1O is ___
Marked response: TRUE

Exam item: Test call, this compound: COc1cc(C(=O)NS(=O)(=O)c2ccccc2C)ccc1Cc1cn(C)c2ccc(NC(=O)OC3CCCC3)cc12
Marked response: FALSE

Exam item: // return assay outcome for CC=CC1=C(C(=O)O)N2C(=O)[C@H](NC(=O)[C@H](N)c3ccc(O)cc3)[C@@H]2SC1
Marked response: FALSE

Exam item: Which outcome was assigned to COC(=O)C1=C(C)NC(C)=C(C(=O)OCCN2CCN(C(c3ccccc3)c3ccccc3)CC2)C1c1cccc([N+](=O)[O-])c1 (configuration not stated) in this test?
Marked response: TRUE

Exam item: For O=C(O)CO.[NH2-].[NH2-].[Pt+2] , which call appears in the assay record?
Marked response: FALSE

Exam item: Please indicate how the test categorized Nc1ccc(S(=O)(=O)Nc2ncccn2)cc1 .
Marked response: FALSE

Exam item: Look up the recorded call for CN1c2cc(O)c(N=NC(N)=O)cc2CC1S(=O)(=O)O (configuration not stated) in this test.
Marked response: FALSE

---

experiment: qHTS profiling of the MIPE4 collection as inhibitors of Plasmodium falciparum (DD2) proliferation (AID 743345); conditions: P. falciparum Dd2 in erythrocytes, SYBR Green DNA, 72 h; at 28.5 µM (top of the series) unless noted
Can you tell me parasite growth remaining, % of DMSO control (lower = more inhibition) for the items I'm about to list?
Write the answer as a number in %, unit excluded.

Exam item: Name the recorded parasite growth remaining, % of DMSO control (lower = more inhibition) of the compound listed here: C=CC(=O)Nc1cccc(Oc2nc(Nc3ccc(N4CCN(C)CC4)cc3OC)ncc2Cl)c1
Marked response: 15.1

Exam item: State its parasite growth remaining, % of DMSO control (lower = more inhibition): CN(C)CCCN=c1c2ccccc2n(C)c2[nH]c(=O)n(C)c(=O)c12
Marked response: 10.8

Exam item: Respond only with parasite growth remaining, % of DMSO control (lower = more inhibition) recorded for CC=C1NC(=O)[C@H]2CSSCCC=C[C@H](CC(=O)N[C@H](C(C)C)C(=O)N2)OC(=O)[C@H](C(C)C)NC1=O
Marked response: 8.63

Exam item: State, in one line, measured parasite growth remaining, % of DMSO control (lower = more inhibition) of O=C(Nc1cn[nH]c1-c1nc2ccc(CN3CCOCC3)cc2[nH]1)NC1CC1
Marked response: 12.9

Exam item: Look up parasite growth remaining, % of DMSO control (lower = more inhibition) of COc1cc(C)c(Sc2cnc(NC(=O)c3ccc(CNC(C)C(C)C)cc3)s2)cc1C(=O)N1CCN(C(C)=O)CC1 (centres undefined) and report it.
Marked response: 16

Exam item: Provide one value: measured parasite growth remaining, % of DMSO control (lower = more inhibition) of Nc1ccccc1NC(=O)c1ccc(CNc2nccc(-c3cccnc3)n2)cc1
Marked response: 7.08

Exam item: For CN1CCN(Cc2ccc(NC(=O)Nc3ccc(Oc4cc(NC(=O)C5CC5)ncn4)cc3)cc2C(F)(F)F)CC1 , write its parasite growth remaining, % of DMSO control (lower = more inhibition).
Marked response: 6.55

Exam item: Complete the entry with parasite growth remaining, % of DMSO control (lower = more inhibition) for O=C(O)c1ccc2c(c1)nc(Nc1cccc(Cl)c1)c1ccncc12
Marked response: 9

Exam item: Please list parasite growth remaining, % of DMSO control (lower = more inhibition) recorded for the compound CCc1c2c(nc3ccc(O)cc13)-c1cc3c(c(=O)n1C2)COC(=O)[C@]3(O)CC
Marked response: 12.1

Exam item: Identify the reported parasite growth remaining, % of DMSO control (lower = more inhibition) for the following entry. COc1cc2c(Oc3ccc(-c4cnc(Nc5ccc(F)cc5)n(C)c4=O)cc3F)ccnc2cc1OCCCN1CCOCC1
Marked response: 6.26

Exam item: Indicate the recorded parasite growth remaining, % of DMSO control (lower = more inhibition) value for this compound: Nc1ncnc2c1c(-c1cnc3[nH]ccc3c1)nn2C1CCCC1
Marked response: 8.6

Exam item: Return parasite growth remaining, % of DMSO control (lower = more inhibition) (reported value) for this compound: Cn1cc(-c2ccncc2)c(-c2ccc(OCc3ccc4ccccc4n3)cc2)n1
Marked response: 98.3

Exam item: Identify measured parasite growth remaining, % of DMSO control (lower = more inhibition) corresponding to CN(C1CCc2c(c3ccccc3n2CC(=O)O)C1)S(=O)(=O)c1ccc(F)cc1 (centres undefined)
Marked response: 93.1

Exam item: For CNc1nccc(-c2cccnc2Oc2cc(C(=O)Nc3cccc(C(F)(F)F)c3)ccc2C)n1 , write its parasite growth remaining, % of DMSO control (lower = more inhibition).
Marked response: 31.1

Exam item: Quick one: give measured parasite growth remaining, % of DMSO control (lower = more inhibition) for C1Cc2[nH]nc(-c3nn[nH]n3)c2C1
Marked response: 93.2

Exam item: Please give the documented parasite growth remaining, % of DMSO control (lower = more inhibition) of CC(C)c1cc(-c2n[nH]c(=O)n2-c2ccc3c(ccn3C)c2)c(O)cc1O
Marked response: 8.22

Exam item: Report measured parasite growth remaining, % of DMSO control (lower = more inhibition); entry is NC1(Cc2ccc(Cl)cc2)CCN(c2ncnc3[nH]ccc23)CC1
Marked response: 31.6

Exam item: Kindly indicate its recorded parasite growth remaining, % of DMSO control (lower = more inhibition). Item: Cc1ccc(C(N)=O)cc1Nc1nccc(-c2cn(C(C)C)c3cnccc23)n1
Marked response: 6.53

Exam item: Specify measured parasite growth remaining, % of DMSO control (lower = more inhibition) for CC(NCc1ccc2c(c1)nc(NC(=O)c1ccc(-c3cn[nH]c3)s1)n2CC(C)(C)O)C(C)(C)C (centres undefined) .
Marked response: 7.07
